- subject_of_test: HLA-A*69:01
- assay_name: IEDB peptide-MHC binding, purified MHC/competitive/fluorescence; filed as Kd, often an IC50 or EC50 that approximates it; bounds were set here for any values at or beyond the usual limits of such assays
- run_parameters: source organism: Orthohantavirus andesense
metric: Kd

[
  {
    "residues": "STGKSIKFK",
    "metric": "Kd",
    "result": "≥ 20 µM"
  }
]

###

- subject_of_test: HLA-C*15:02
- assay_name: IEDB peptide-MHC binding, purified MHC/direct/fluorescence; filed as Kd, often an IC50 or EC50 that approximates it; bounds were set here for any values at or beyond the usual limits of such assays
- run_parameters: source organism: Toxoplasma gondii

[
  {
    "residues": "RTWFYRTEF",
    "Kd / nM": 127
  }
]

###

- subject_of_test: HLA-A*11:01
- assay_name: IEDB peptide-MHC binding, purified MHC/competitive/radioactivity; filed as Kd, often an IC50 or EC50 that approximates it; bounds were set here for any values at or beyond the usual limits of such assays
- run_parameters: source organism: Vaccinia virus WR

[
  {
    "residues": "SIGNVTRLFY",
    "subject_of_test": "HLA-A*11:01",
    "readout_relation": "=",
    "Kd (nM)": 25
  },
  {
    "residues": "FSPENKAFK",
    "subject_of_test": "HLA-A*11:01",
    "readout_relation": "=",
    "Kd (nM)": 5020
  },
  {
    "residues": "LSKDKMDSFK",
    "subject_of_test": "HLA-A*11:01",
    "readout_relation": "=",
    "Kd (nM)": 15
  },
  {
    "residues": "EFCVDHPFIY",
    "subject_of_test": "HLA-A*11:01",
    "readout_relation": "=",
    "Kd (nM)": 11000
  },
  {
    "residues": "TIDKSSPLY",
    "subject_of_test": "HLA-A*11:01",
    "readout_relation": "=",
    "Kd (nM)": 81.7
  },
  {
    "residues": "RIGTAATKRY",
    "subject_of_test": "HLA-A*11:01",
    "readout_relation": "≥",
    "Kd (nM)": 69800
  },
  {
    "residues": "QLCYCPASKK",
    "subject_of_test": "HLA-A*11:01",
    "readout_relation": "=",
    "Kd (nM)": 96.2
  },
  {
    "residues": "SIILANERY",
    "subject_of_test": "HLA-A*11:01",
    "readout_relation": "=",
    "Kd (nM)": 233
  },
  {
    "residues": "VSKHWELTNK",
    "subject_of_test": "HLA-A*11:01",
    "readout_relation": "=",
    "Kd (nM)": 157
  },
  {
    "residues": "PSRSKMLKR",
    "subject_of_test": "HLA-A*11:01",
    "readout_relation": "=",
    "Kd (nM)": 5560
  },
  {
    "residues": "YVKALTKNY",
    "subject_of_test": "HLA-A*11:01",
    "readout_relation": "=",
    "Kd (nM)": 12700
  }
]

###

- subject_of_test: HLA-B*18:01
- assay_name: IEDB peptide-MHC binding, purified MHC/competitive/radioactivity; filed as Kd, often an IC50 or EC50 that approximates it; bounds were set here for any values at or beyond the usual limits of such assays
- run_parameters: source organism: Mammarenavirus whitewaterense
pKd: −log10 of the molar value.
metric: pKd

[
  {
    "residues": "LDIQKCGEL",
    "result": "≤ 4.27"
  }
]

###

- subject_of_test: HLA-A*23:01
- assay_name: IEDB peptide-MHC binding, purified MHC/competitive/radioactivity; filed as Kd, often an IC50 or EC50 that approximates it; bounds were set here for any values at or beyond the usual limits of such assays
- run_parameters: source organism: Dengue virus 4 Philippines/H241/1956
pKd: −log10 of the molar value.
metric: pKd

[
  {
    "residues": "AWRTIMAVLF",
    "metric": "pKd",
    "result": 7.29
  },
  {
    "residues": "TWAFCEVLTL",
    "metric": "pKd",
    "result": 6.63
  },
  {
    "residues": "RFLEFEALGF",
    "metric": "pKd",
    "result": 8.84
  },
  {
    "residues": "YYMATLKNV",
    "metric": "pKd",
    "result": 6.50
  }
]

###

- subject_of_test: HLA-B*58:01
- assay_name: IEDB peptide-MHC binding, purified MHC/competitive/fluorescence; filed as Kd, often an IC50 or EC50 that approximates it; bounds were set here for any values at or beyond the usual limits of such assays
- run_parameters: source organism: Influenza A virus (A/Memphis/1/1978(H1N1))
pKd: −log10 of the molar value.

[
  {
    "residues": "IGILHLILW",
    "pKd": 5.49
  }
]

###

- subject_of_test: HLA-B*27:05
- assay_name: IEDB peptide-MHC binding, purified MHC/direct/fluorescence; filed as Kd, often an IC50 or EC50 that approximates it; bounds were set here for any values at or beyond the usual limits of such assays
- run_parameters: source organism: Camelpox virus CMS
metric: Kd

[
  {
    "residues": "RVFDKADGK",
    "metric": "Kd",
    "result": "≥ 20 µM"
  }
]

###

- subject_of_test: HLA-A*23:01
- assay_name: IEDB peptide-MHC binding, purified MHC/competitive/radioactivity; filed as Kd, often an IC50 or EC50 that approximates it; bounds were set here for any values at or beyond the usual limits of such assays
- run_parameters: source organism: Mammarenavirus juninense
pKd: −log10 of the molar value.

[
  {
    "residues": "AGSKYIHCF",
    "pKd": "≤ 4.67"
  }
]

###

- subject_of_test: HLA-B*44:02
- assay_name: IEDB peptide-MHC binding, purified MHC/direct/fluorescence; filed as Kd, often an IC50 or EC50 that approximates it; bounds were set here for any values at or beyond the usual limits of such assays
- run_parameters: source organism: Vibrio parahaemolyticus
pKd: −log10 of the molar value.

[
  {
    "residues": "MSSAMSMMH",
    "subject_of_test": "HLA-B*44:02",
    "pKd": "≤ 4.70"
  }
]

###

- subject_of_test: HLA-B*08:01
- assay_name: IEDB peptide-MHC binding, purified MHC/competitive/radioactivity; filed as Kd, often an IC50 or EC50 that approximates it; bounds were set here for any values at or beyond the usual limits of such assays
- run_parameters: source organism: Dengue virus 2 Peru/IQT2913/1996
pKd: −log10 of the molar value.
metric: pKd

[
  {
    "residues": "NRRRRTAGM",
    "metric": "pKd",
    "result": 7.00
  }
]

###

- subject_of_test: HLA-A*69:01
- assay_name: IEDB peptide-MHC binding, purified MHC/direct/fluorescence; filed as Kd, often an IC50 or EC50 that approximates it; bounds were set here for any values at or beyond the usual limits of such assays
- run_parameters: source organism: Brucella melitensis
pKd: −log10 of the molar value.
metric: pKd

[
  {
    "residues": "ALFEDYPGC",
    "subject_of_test": "HLA-A*69:01",
    "result": "≤ 4.70"
  }
]

###

- subject_of_test: HLA-A*02:12
- assay_name: IEDB peptide-MHC binding, purified MHC/competitive/fluorescence; filed as Kd, often an IC50 or EC50 that approximates it; bounds were set here for any values at or beyond the usual limits of such assays
- run_parameters: source organism: Yersinia mollaretii ATCC 43969

[
  {
    "residues": "MMWIPGWFG",
    "Kd / nM": 185
  }
]

###

- subject_of_test: HLA-A*26:01
- assay_name: IEDB peptide-MHC binding, purified MHC/direct/fluorescence; filed as Kd, often an IC50 or EC50 that approximates it; bounds were set here for any values at or beyond the usual limits of such assays
- run_parameters: source organism: Bacillus cereus H3081.97
pKd: −log10 of the molar value.

[
  {
    "residues": "YSTVRDLFL",
    "pKd": "≤ 4.70"
  }
]

###

- subject_of_test: HLA-A*33:01
- assay_name: IEDB peptide-MHC binding, purified MHC/competitive/radioactivity; filed as Kd, often an IC50 or EC50 that approximates it; bounds were set here for any values at or beyond the usual limits of such assays
- run_parameters: source organism: Lymphocytic choriomeningitis virus (strain Armstrong)

[
  {
    "residues": "FTNDSIISH",
    "subject_of_test": "HLA-A*33:01",
    "Kd": "342 nM"
  }
]
